Test system: THP-1 viability, CellTiter-Glo luminescence, 72 h
protocol-text: PubChem AID 2252
readout-label: EC50

Sample answers from the record:
# compound, EC50
rows = [
    ("Cc1ccc(-n2c(Cc3noc4ccccc34)n[nH]c2=S)cc1", "< 0.1 µM"),
    ("CN1CCN(Cc2cc(COCc3ccccc3)c3cccnc3c2O)CC1", "2.82 µM"),
]

For this compound ( CNC(CC(=O)c1ccc([N+](=O)[O-])cc1)C(Cl)(Cl)Cl (stereo not drawn) ), measured EC50 is 9.95 µM

For this compound ( CN1CCN(C(c2ccc(Br)cc2)c2cc(Cl)c3cccnc3c2O)CC1 (stereo not drawn) ), measured EC50 is 2 µM

For this compound ( NCC/C=C1/c2ccccc2CSc2ccccc21 ), measured EC50 is 25.9 µM

###

Test system: THP-1 viability, CellTiter-Glo luminescence, 72 h
protocol-text: PubChem AID 2252
Examples of molecules with documented EC50 follow.

Sample answers from the record:
# molecule, system, EC50
records = [
    ("Cc1ccc(C(C[N+](=O)[O-])Sc2ccc(N)cc2)cc1 (stereo not given)", "THP-1 viability, CellTiter-Glo luminescence, 72 h", "21.8 µM"),
    ("CN1CCN(c2nc(Nc3ccc(F)cc3)nc(Nc3ccc(F)cc3)n2)CC1", "THP-1 viability, CellTiter-Glo luminescence, 72 h", "12.1 µM"),
    ("N=c1c2c(n(Cc3ccc(Cl)cc3Cl)c3c1CCC3)CCCC2", "THP-1 viability, CellTiter-Glo luminescence, 72 h", "3.66 µM"),
    ("O=[N+]([O-])c1ccc(O)c(/C=N/Nc2ccccn2)c1", "THP-1 viability, CellTiter-Glo luminescence, 72 h", "0.42 µM"),
    ("O=C(N/N=C\\C=C\\c1ccc([N+](=O)[O-])o1)c1cccs1", "THP-1 viability, CellTiter-Glo luminescence, 72 h", "34.8 µM"),
    ("CC1CCN(CC(CS(=O)(=O)c2ccc([N+](=O)[O-])cc2)N2CCC(C)CC2)CC1 (stereo not given)", "THP-1 viability, CellTiter-Glo luminescence, 72 h", "14.6 µM"),
]

For this molecule ( CC(=O)NC(c1cccc([N+](=O)[O-])c1)c1ccc2cccnc2c1O (stereo not given) ), measured EC50 is 0.47 µM

For this molecule ( CN(O)/C=c1/ccc2c(n1)C(=O)C=CC=2 ), measured EC50 is 25.5 µM

For this molecule ( C#CCOCCOCCOCCNc1nc(N2CCN(C(=O)CCCCCCCCCCNC(=O)Cn3cc(CCCCCN)nn3)CC2)nc(N2CCN(C(=O)CCCCCCCCCCNC(=O)[C@@H]([C@H](C)O)n3cc(C)nn3)CC2)n1 ), measured EC50 is < 0.1 µM

For this molecule ( Nc1cc(Cl)c2nonc2c1[N+](=O)[O-] ), measured EC50 is 2.73 µM

###

Test system: THP-1 viability, CellTiter-Glo luminescence, 72 h
protocol-text: PubChem AID 2252
pEC50: −log10 of the molar value.
Examples of compounds with documented pEC50 follow.

Sample answers from the record:
# compound, system, pEC50
data = [
    ("CC1(C)CC(N2CCN(C(c3ccccc3)c3ccccc3)CC2)=CC(=[N+]2CCCCC2)C1", "THP-1 viability, CellTiter-Glo luminescence, 72 h", 5.98),
    ("c1ccc2c(SCc3cn4ccccc4n3)nncc2c1", "THP-1 viability, CellTiter-Glo luminescence, 72 h", "> 7.00"),
    ("COc1ccccc1Nc1c2ccccc2nc2ccccc12", "THP-1 viability, CellTiter-Glo luminescence, 72 h", 5.08),
    ("O=C(C[n+]1cn(C(F)F)c2ccccc21)c1ccc(Br)cc1", "THP-1 viability, CellTiter-Glo luminescence, 72 h", 4.45),
    ("OC(CNCCc1ccccc1)COc1ccc(OCC(O)CNCCc2ccccc2)cc1 (stereo not given)", "THP-1 viability, CellTiter-Glo luminescence, 72 h", 5.13),
    ("Cc1ccc2sc(N(CCCN(C)C)C(=O)c3ccc(Br)s3)nc2c1C", "THP-1 viability, CellTiter-Glo luminescence, 72 h", 4.67),
]

Kindly note: THP-1 viability, CellTiter-Glo luminescence, 72 h, CC1(C)Oc2ccc3ccc(=O)oc3c2/C(=C/NCCN/C=C2\C(=O)C(C)(C)Oc3ccc4ccc(=O)oc4c32)C1=O , pEC50 value reported: > 7.00

Kindly note: THP-1 viability, CellTiter-Glo luminescence, 72 h, CCCCCSc1cc(OC)c(CCNC)cc1OC , pEC50 value reported: 4.86

Kindly note: THP-1 viability, CellTiter-Glo luminescence, 72 h, O=Nc1c(O)c2ccccc2c2ccccc12 , pEC50 value reported: 5.51

Kindly note: THP-1 viability, CellTiter-Glo luminescence, 72 h, CCCCCCCCCCCCCCCC[n+]1cccc(C(=O)N(CC)CC)c1 , pEC50 value reported: 6.36

Kindly note: THP-1 viability, CellTiter-Glo luminescence, 72 h, O=C(c1ccccc1)c1c2c(cc3sc4ccccc4[n+]13)-c1cccc3cccc-2c13 , pEC50 value reported: 5.87

Kindly note: THP-1 viability, CellTiter-Glo luminescence, 72 h, CC1=C([N+](=O)[O-])C(c2ccccc2)C2=C(N1)c1ccccc1C2=O (stereo not given) , pEC50 value reported: 6.00

Kindly note: THP-1 viability, CellTiter-Glo luminescence, 72 h, COc1ccc(C2NCCc3c2[nH]c2ccccc32)cc1COc1ccc(F)cc1 (stereo not given) , pEC50 value reported: 5.16

Kindly note: THP-1 viability, CellTiter-Glo luminescence, 72 h, COc1ccc(Nc2nc(NCC3CCCO3)c3ccccc3n2)c(OC)c1 (stereo not given) , pEC50 value reported: 5.03

Kindly note: THP-1 viability, CellTiter-Glo luminescence, 72 h, CC(NCc1ccc(-c2ccccc2)cc1)C(O)c1ccccc1 (stereo not given) , pEC50 value reported: 5.26

Kindly note: THP-1 viability, CellTiter-Glo luminescence, 72 h, Nc1nonc1C(=O)N/N=C/c1cc(Br)ccc1O , pEC50 value reported: 5.38

Kindly note: THP-1 viability, CellTiter-Glo luminescence, 72 h, NC1=NC2=C(CCCC2)C2(CCCCC2)S1 , pEC50 value reported: 4.43

Kindly note: THP-1 viability, CellTiter-Glo luminescence, 72 h, O=c1c2ccccc2nc(-c2cccc(Cl)c2)n1O , pEC50 value reported: 4.74

Kindly note: THP-1 viability, CellTiter-Glo luminescence, 72 h, Cc1ccccc1Nc1cc(C)c2c(O)cccc2n1 , pEC50 value reported: 5.30

Kindly note: THP-1 viability, CellTiter-Glo luminescence, 72 h, O=C(N/N=C/c1cc([N+](=O)[O-])ccc1O)C(O)(c1ccccc1)c1ccccc1 , pEC50 value reported: 4.93

Kindly note: THP-1 viability, CellTiter-Glo luminescence, 72 h, O=C(O)c1ccc(NC2=C(Cl)C(=O)c3ccccc3C2=O)cc1 , pEC50 value reported: 4.94

Kindly note: THP-1 viability, CellTiter-Glo luminescence, 72 h, c1ccc(Nc2nc(NCc3ccco3)c3ccccc3n2)cc1 , pEC50 value reported: 5.31

Kindly note: THP-1 viability, CellTiter-Glo luminescence, 72 h, O=C(N/N=C/c1cc(Cl)ccc1O)c1cccnc1 , pEC50 value reported: 5.54

Kindly note: THP-1 viability, CellTiter-Glo luminescence, 72 h, Oc1ccc(C[C@H]2CNCCN2CCCCC2CCCCC2)cc1 , pEC50 value reported: 5.05

###

Tested on: THP-1 viability, CellTiter-Glo luminescence, 72 h
protocol-text: PubChem AID 2252
readout-label: EC50

# compound, EC50
records = [
    ("O=C(/C=C/c1ccccc1)NC(=S)NNC(=O)c1cnccn1", "4.6 µM"),
    ("Oc1[nH]c2ccc(Br)cc2c1N=NC(=S)N1CCOCC1", "1.82 µM"),
    ("O=c1c2ccccc2nc(N/N=C/c2c(O)ccc3ccccc23)n1O", "0.99 µM"),
    ("CCCCc1ccc(NC2=NCCCS2)cc1", "21.3 µM"),
]

For this compound ( O=[N+]([O-])c1cc(/C=N/Nc2nc3ccccc3[nH]2)c(O)cc1O ), measured EC50 is 1.7 µM

For this compound ( COc1ccc(/C=C/C(=O)NC(=S)NNC(=O)c2cnccn2)cc1 ), measured EC50 is 2.81 µM

For this compound ( CC(C)(C)c1ccc(NC(=O)NCc2ccco2)cc1 ), measured EC50 is 13.3 µM

For this compound ( O=C1c2c(O)ccc(O)c2C(=O)c2c(NCCNCCO)ccc(NCCNCCO)c21 ), measured EC50 is < 0.1 µM

For this compound ( c1ccc2c(c1)CSc1sccc1C2=C1CCNCC1 ), measured EC50 is 17.7 µM

For this compound ( N=c1n(Cc2ccc(Cl)cc2)c2ccccc2n1CC(O)COc1ccccc1 (stereo unspecified) ), measured EC50 is 5.39 µM

For this compound ( CCC(O)(CC)C(=O)N/N=C/c1cc(Br)cc(Br)c1O ), measured EC50 is 15.4 µM

Origin of the recorded values: PubChem BioAssay AID2252
